Data provenance is ChEMBL document CHEMBL1938355.

- System: Mycobacterium tuberculosis
- assay-method-text: Antimycobacterial activity against Mycobacterium bovis BCG assessed as growth inhibition at 100 ug/ml by microplate alamar blue assay
- Type: functional
- condition-parameters: variant bovis BCG, read-out: GI
Listed here: items and their measured inhibition of growth at 100 µg/mL.

{"columns": ["structure-string", "measured-on", "inhibition of growth at 100 µg/mL [%]"],
 "data": [
  ["[N-]=[N+]=N[C@H]1C[C@H](n2cc(Br)c(=O)[nH]c2=O)O[C@@H]1CO", "Mycobacterium tuberculosis", 50],
  ["Cc1cn([C@H]2C[C@H](N)[C@@H](CO)O2)c(=O)[nH]c1=O", "Mycobacterium tuberculosis", 50],
  ["N[C@@H]1CONC1=O", "Mycobacterium tuberculosis", 100],
  ["CCc1cn([C@H]2C[C@H](F)[C@@H](CO)O2)c(=O)[nH]c1=O", "Mycobacterium tuberculosis", 40],
  ["[N-]=[N+]=N[C@H]1C[C@H](n2cc(Cl)c(=O)[nH]c2=O)O[C@@H]1CO", "Mycobacterium tuberculosis", 50],
  ["CCc1cn([C@H]2C[C@H](N=[N+]=[N-])[C@@H](CO)O2)c(=O)[nH]c1=O", "Mycobacterium tuberculosis", 95]
]}
